Here, each record is paired with measured pEC50 data.
assay: Inhibition of methicillin-resistant Staphylococcus aureus Mu50 TRAP assessed as potentiation of vancomycin-induced antibiofilm activity treated for 4 hrs prior to vancomycin addition measured after 20 hrs
pEC50: −log10 of the molar value.

{"chemical smiles": "O=C(NC[C@]1(O)CO[C@H](CN2C(=O)c3ccccc3C2=O)[C@H]1O)c1ccnnc1", "pEC50": 5.23}
{"chemical smiles": "O=C(NC[C@H]1OC[C@@](O)(CN2C(=O)c3ccccc3C2=O)[C@@H]1O)c1ccc(-c2ccccc2)cc1", "pEC50": 4.61}
{"chemical smiles": "O=C(NC[C@H]1OC[C@@](O)(CN2Cc3ccccc3C2=O)[C@@H]1O)c1ccccc1Cl", "pEC50": 4.86}

----------
Here, each record is paired with measured pEC50 data.
test: Inhibition of methicillin-resistant Staphylococcus aureus Mu50 TRAP assessed as potentiation of vancomycin-induced antibiofilm activity cotreated with vancomycin for 24 hrs
pEC50: −log10 of the molar value.
parameter: pEC50

{"compound": "Cn1nccc1C(=O)NC[C@H]1OC[C@@](O)(CNC(=O)c2ccccc2)[C@@H]1O", "numeric value": 4.63}
{"compound": "Cn1cncc1C(=O)NC[C@H]1OC[C@@](O)(CNC(=O)c2ccccc2)[C@@H]1O", "numeric value": 4.24}
{"compound": "O=C(NC[C@H]1OC[C@@](O)(CNC(=O)C2CCCCC2)[C@@H]1O)c1ccccc1Cl", "numeric value": 4.47}
{"compound": "[N-]=[N+]=NC[C@]1(O)CO[C@H](CNC(=O)c2ccccc2Cl)[C@H]1O", "numeric value": 5.63}
{"compound": "O=C(NC[C@]1(O)CO[C@H](CNC(=O)c2ccccc2Cl)[C@H]1O)c1ccoc1", "numeric value": 4.12}
{"compound": "CC(=O)NC[C@]1(O)CO[C@H](CNC(=O)c2ccccc2Cl)[C@H]1O", "numeric value": 5.45}
{"compound": "Cc1ccc(C(=O)NC[C@]2(O)CO[C@H](CNC(=O)c3ccccc3Cl)[C@H]2O)cc1", "numeric value": 4.38}
{"compound": "O=C(OC[C@H]1OC(O)[C@@](O)(COC(=O)c2cc(O)c(O)c(O)c2)[C@@H]1O)c1cc(O)c(O)c(O)c1 (some centres undefined)", "numeric value": 3.78}
{"compound": "O=C(NC[C@H]1OC[C@@](O)(CN2C(=O)c3ccccc3C2=O)[C@@H]1O)c1ccccc1Cl", "numeric value": 4.41}

----------
test: Inhibition of methicillin-resistant Staphylococcus aureus Mu50 TRAP assessed as potentiation of vancomycin-induced antibiofilm activity cotreated with vancomycin for 24 hrs
parameter: EC50 (µM)

{"chemical smiles": "O=C(NC[C@H]1OC[C@@](O)(CN2Cc3ccccc3C2=O)[C@@H]1O)c1ccccc1Cl", "parameter": "EC50", "numeric value": 20.9}
{"chemical smiles": "O=C(NC[C@H]1OC[C@@](O)(CNCc2ccccc2)[C@@H]1O)c1ccccc1Cl", "parameter": "EC50", "numeric value": 8.42}
{"chemical smiles": "O=C(NC[C@H]1OC[C@@](O)(CN2C(=O)c3ccccc3C2=O)[C@@H]1O)c1ccc(-c2ccccc2)cc1", "parameter": "EC50", "numeric value": 12.1}

----------
experiment: Inhibition of methicillin-resistant Staphylococcus aureus Mu50 TRAP assessed as potentiation of vancomycin-induced antibiofilm activity treated for 4 hrs prior to vancomycin addition measured after 20 hrs

{"compound": "O=C(NC[C@]1(O)CO[C@H](CNC(=O)c2ccccc2Cl)[C@H]1O)c1ccoc1", "prefix operator": "=", "EC50 / µM": 68.5}
{"compound": "O=C(NC[C@]1(O)CO[C@H](CNC(=O)c2ccccc2Cl)[C@H]1O)c1ccccc1F", "prefix operator": "=", "EC50 / µM": 48.6}
{"compound": "O=C(NC[C@]1(O)CO[C@H](CNC(=O)c2cccnc2Cl)[C@H]1O)c1ccccc1", "prefix operator": ">", "EC50 / µM": 250}
{"compound": "Cn1nccc1C(=O)NC[C@H]1OC[C@@](O)(CNC(=O)c2ccccc2)[C@@H]1O", "prefix operator": "=", "EC50 / µM": 29.3}
{"compound": "[N-]=[N+]=NC[C@]1(O)CO[C@H](CNC(=O)c2ccccc2Cl)[C@H]1O", "prefix operator": "=", "EC50 / µM": 15.1}
{"compound": "O=C(NC[C@H]1OC[C@H](O)[C@@H]1O)c1ccccc1Cl", "prefix operator": "=", "EC50 / µM": 11.4}
{"compound": "O=C(NC[C@H]1OC[C@@](O)(CNC(=O)C2CCCCC2)[C@@H]1O)c1ccccc1Cl", "prefix operator": "=", "EC50 / µM": 9.56}
{"compound": "O=C(NC[C@]1(O)CO[C@H](CN2C(=O)c3ccccc3C2=O)[C@H]1O)c1ccccc1Cl", "prefix operator": "=", "EC50 / µM": 0.26}
{"compound": "O=C(NC[C@H]1OC[C@@](O)(CNC(=O)c2ccccc2Cl)[C@@H]1O)c1ccccc1", "prefix operator": "=", "EC50 / µM": 5.58}
{"compound": "O=C(NC[C@H]1OC[C@@](O)(CNC(=O)c2ccc(-c3ccccc3)cc2)[C@@H]1O)c1ccnnc1", "prefix operator": "=", "EC50 / µM": 8.54}
{"compound": "O=C(NC[C@]1(O)CO[C@H](CNC(=O)c2ccccc2Cl)[C@H]1O)c1ccccc1", "prefix operator": "=", "EC50 / µM": 0.39}
{"compound": "O=C(NC[C@]1(O)CO[C@H](CNC(=O)c2ccncc2Cl)[C@H]1O)c1ccccc1", "prefix operator": ">", "EC50 / µM": 250}
{"compound": "Cc1ccc(C(=O)NC[C@]2(O)CO[C@H](CNC(=O)c3ccccc3Cl)[C@H]2O)cc1", "prefix operator": "=", "EC50 / µM": 79.7}
{"compound": "O=C(NC[C@H]1OC[C@@](O)(CNCc2ccccc2)[C@@H]1O)c1ccccc1Cl", "prefix operator": "=", "EC50 / µM": 6.32}
{"compound": "O=C(OC[C@H]1OC(O)[C@@](O)(COC(=O)c2cc(O)c(O)c(O)c2)[C@@H]1O)c1cc(O)c(O)c(O)c1 (some centres undefined) [Hamamelitannin]", "prefix operator": "=", "EC50 / µM": 146}
{"compound": "CC(=O)NC[C@]1(O)CO[C@H](CNC(=O)c2ccccc2Cl)[C@H]1O", "prefix operator": "=", "EC50 / µM": 15.4}
{"compound": "Cn1cncc1C(=O)NC[C@H]1OC[C@@](O)(CNC(=O)c2ccccc2)[C@@H]1O", "prefix operator": "=", "EC50 / µM": 46.7}
{"compound": "O=C(NC[C@]1(O)CO[C@H](CNC(=O)c2cnccc2Cl)[C@H]1O)c1ccccc1", "prefix operator": "=", "EC50 / µM": 200}
{"compound": "O=C(NC[C@H]1OC[C@@](O)(CN2C(=O)c3ccccc3C2=O)[C@@H]1O)c1ccccc1Cl", "prefix operator": "=", "EC50 / µM": 2.63}

Ref: BindingDB's records for doi:10.1021/acsmedchemlett.6b00315
